molecular target: GST-Bcl-2/1-90 (UniProt P10415 1-90); assay: fluorescence polarisation
Sequence (P10415 1-90): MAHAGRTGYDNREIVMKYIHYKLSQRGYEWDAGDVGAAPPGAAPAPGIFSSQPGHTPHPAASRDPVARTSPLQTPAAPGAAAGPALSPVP
Non-standard residues stand in square brackets, D forms with d. No end group written: not given here. *: point of attachment. FITC = O=C1OC2(c3ccc(O)cc3Oc3cc(O)ccc32)c2ccc(NC(=S)*)cc21
readout-kind: Kd

The binder listed as {FITC}-FSRSLHSLL[dR][dR][dR][dR][dR][dR][dR][dR] (peptide, UniProt P22736 489-497, looked up) [FITC-NuBCP-9-r8] shows Kd equal to 1.7 µM
